assay: total protein half-life in vivo (active degradation + dilution); higher = more stable protein; details: E. coli NCM3722 delta-clpP; growth: N-lim chemostat; doubling time 6 h
Parameter total protein half-life in vivo: see the listing below.

POLYMER_SEQUENCE	total protein half-life in vivo / h
MSQTVHFQGNPVTVANSIPQAGSKAQTFTLVAKDLSDVTLGQFAGKRKVLNIFPSIDTGVCAASVRKFNQLATEIDNTVVLCISADLPFAQSRFCGAEGLNNVITLSTFRNAEFLQAYGVAIADGPLKGLAARAVVVIDENDNVIFSQLVDEITTEPDYEAALAVLKA [P0A862]	5.2
MNIVITGGTGLIGRHLIPRLLELGHQITVVTRNPQKASSVLGPRVTLWQGLADQSNLNGVDAVINLAGEPIADKRWTHEQKERLCQSRWNITQKLVDLINASDTPPSVLISGSATGYYGDLGEVVVTEEEPPHNEFTHKLCARWEEIACRAQSDKTRVCLLRTGVVLAPDGGILGKMLPPFRLGLGGPIGSGRQYLAWIHIDDMVNGILWLLDNELRGPFNMVSPYPVRNEQFAHALGHALHRPAILRVPATAIRLLMGESSVLVLGGQRALPKRLEEAGFAFRWYDLEEALADVVR	6.1
MALLPDKEKLLRNFLRCANWEEKYLYIIELGQRLPELRDEDRSPQNSIQGCQSQVWIVMRQNAQGIIELQGDSDAAIVKGLIAVVFILYDQMTPQDIVNFDVRPWFEKMALTQHLTPSRSQGLEAMIRAIRAKAAALS	3.71
MERVSITERPDWREKAHEYGFNFHTMYGEPYWCEDAYYKLTLAQVEKLEEVTAELHQMCLKVVEKVIASDELMTKFRIPKHTWSFVRQSWLTHQPSLYSRLDLAWDGTGEPKLLENNADTPTSLYEAAFFQWIWLEDQLNAGNLPEGSDQFNSLQEKLIDRFVELREQYGFQLLHLTCCRDTVEDRGTIQYLQDCATEAEIATEFLYIDDIGLGEKGQFTDLQDQVISNLFKLYPWEFMLREMFSTKLEDAGVRWLEPAWKSIISNKALLPLLWEMFPNHPNLLPAYFAEDDHPQMEKYVVKPIFSREGANVSIIENGKTIEAAEGPYGEEGMIVQQFHPLPKFGDSYMLIGSWLVNDQPAGIGIREDRALITQDMSRFYPHIFVE [P0ADT5]	4.7
MNYQNDDLRIKEIKELLPPVALLEKFPATENAANTVAHARKAIHKILKGNDDRLLVVIGPCSIHDPVAAKEYATRLLALREELKDELEIVMRVYFEKPRTTVGWKGLINDPHMDNSFQINDGLRIARKLLLDINDSGLPAAGEFLDMITPQYLADLMSWGAIGARTTESQVHRELASGLSCPVGFKNGTDGTIKVAIDAINAAGAPHCFLSVTKWGHSAIVNTSGNGDCHIILRGGKEPNYSAKHVAEVKEGLNKAGLPAQVMIDFSHANSSKQFKKQMDVCADVCQQIAGGEKAIIGVMVESHLVEGNQSLESGEPLAYGKSITDACIGWEDTDALLRQLANAVKARRG [P0AB91]	2.92
MSHLDNGFRSLTLQRFPATDDVNPLQAWEAADEYLLQQLDDTEIRGPVLILNDAFGALSCALAEHKPYSIGDSYISELATRENLRLNGIDESSVKFLDSTADYPQQPGVVLIKVPKTLALLEQQLRALRKVVTSDTRIIAGAKARDIHTSTLELFEKVLGPTTTTLAWKKARLINCTFNEPQLADAPQTVSWKLEGTDWTIHNHANVFSRTGLDIGARFFMQHLPENLEGEIVDLGCGNGVIGLTLLDKNPQAKVVFVDESPMAVASSRLNVETNMPEALDRCEFMINNALSGVEPFRFNAVLCNPPFHQQHALTDNVAWEMFHHARRCLKINGELYIVANRHLDYFHKLKKIFGNCTTIATNNKFVVLKAVKLGRRR	5.19

----------
test: total protein half-life in vivo (active degradation + dilution); higher = more stable protein; settings: wild type E. coli NCM3722; growth: C-lim chemostat; doubling time 3 h
MEASURE: total protein half-life in vivo (h)

POLYMER_SEQUENCE	MEASURE	REPORTED
MKIITCFKLVPEEQDIVVTPEYTLNFDNADAKISQFDLNAIEAASQLATDDDEIAALTVGGSLLQNSKVRKDVLSRGPHSLYLVQDAQLEHALPLDTAKALAAAIEKIGFDLLIFGEGSGDLYAQQVGLLVGEILQLPVINAVSAIQRQGNTLVIERTLEDDVEVIELSVPAVLCVTSDINVPRIPSMKAILGAGKKPVNQWQASDIDWSQSAPLAELVGIRVPPQTERKHIIIDNDSPEAIAELAEHLKKALN	total protein half-life in vivo	0.95
MALPILLDCDPGHDDAIAIVLALASPELDVKAITSSAGNQTPEKTLRNVLRMLTLLNRTDIPVAGGAVKPLMRELIIADNVHGESGLDGPALPEPTFAPQNCTAVELMAKTLRESAEPVTIVSTGPQTNVALLLNSHPELHSKIARIVIMGGAMGLGNWTPAAEFNIYVDPEAAEIVFQSGIPVVMAGLDVTHKAQIHVEDTERFRAIGNPVSTIVAELLDFFLEYHKDEKWGFVGAPLHDPCTIAWLLKPELFTSVERWVGVETQGKYTQGMTVVDYYYLTGNKPNATVMVDVDRQGFVDLLADRLKFYA	total protein half-life in vivo	3.02
MFEITGINVSGALKAVVMATGFENPLSSVNEIETKLSALLGSETTGEILFDLLCANGPEWNRFVTLEMKYGRIMLDTAKIIDEQDVPTHILSKLTFTLRNHPEYLEASVLSPDDVRQVLSMDF	total protein half-life in vivo	2.73
MAQLYFYYSAMNAGKSTALLQSSYNYQERGMRTVVYTAEIDDRFGAGKVSSRIGLSSPAKLFNQNSSLFDEIRAEHEQQAIHCVLVDECQFLTRQQVYELSEVVDQLDIPVLCYGLRTDFRGELFIGSQYLLAWSDKLVELKTICFCGRKASMVLRLDQAGRPYNEGEQVVIGGNERYVSVCRKHYKEALQVDSLTAIQERHRHD	total protein half-life in vivo	2.47
MQKIVIVANGAPYGSESLFNSLRLAIALREQESNLDLRLFLMSDAVTAGLRGQKPGEGYNIQQMLEILTAQNVPVKLCKTCTDGRGISTLPLIDGVEIGTLVELAQWTLSADKVLTF [P0AB52]	total protein half-life in vivo	2.64
MNPIVINRLQRKLGYTFNHQELLQQALTHRSASSKHNERLEFLGDSILSYVIANALYHRFPRVDEGDMSRMRATLVRGNTLAELAREFELGECLRLGPGELKSGGFRRESILADTVEALIGGVFLDSDIQTVEKLILNWYQTRLDEISPGDKQKDPKTRLQEYLQGRHLPLPTYLVVQVRGEAHDQEFTIHCQVSGLSEPVVGTGSSRRKAEQAAAEQALKKLELE [P0A7Y0]	total protein half-life in vivo	2.85
MKPRQRQAAILEYLQKQGKCSVEELAQYFDTTGTTIRKDLVILEHAGTVIRTYGGVVLNKEESDPPIDHKTLINTHKKELIAEAAVSFIHDGDSIILDAGSTVLQMVPLLSRFNNITVMTNSLHIVNALSELDNEQTILMPGGTFRKKSASFHGQLAENAFEHFTFDKLFMGTDGIDLNAGVTTFNEVYTVSKAMCNAAREVILMADSSKFGRKSPNVVCSLESVDKLITDAGIDPAFRQALEEKGIDVIITGESNE	total protein half-life in vivo	3.36
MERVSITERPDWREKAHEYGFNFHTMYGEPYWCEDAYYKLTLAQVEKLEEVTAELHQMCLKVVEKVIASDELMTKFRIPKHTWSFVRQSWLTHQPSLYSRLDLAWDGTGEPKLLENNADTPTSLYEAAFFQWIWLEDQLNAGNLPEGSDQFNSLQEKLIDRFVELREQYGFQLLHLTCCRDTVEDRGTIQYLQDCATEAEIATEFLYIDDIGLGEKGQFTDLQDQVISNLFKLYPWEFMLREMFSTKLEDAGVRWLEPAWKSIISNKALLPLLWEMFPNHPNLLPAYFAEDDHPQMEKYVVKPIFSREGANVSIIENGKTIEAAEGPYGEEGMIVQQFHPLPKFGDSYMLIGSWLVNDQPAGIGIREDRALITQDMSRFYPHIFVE [P0ADT5]	total protein half-life in vivo	3.13
MNKSMLAGIGIGVAAALGVAAVASLNVFERGPQYAQVVSATPIKETVKTPRQECRNVTVTHRRPVQDENRITGSVLGAVAGGVIGHQFGGGRGKDVATVVGALGGGYAGNQIQGSLQESDTYTTTQQRCKTVYDKSEKMLGYDVTYKIGDQQGKIRMDRDPGTQIPLDSNGQLILNNKV [P0AB35]	total protein half-life in vivo	0.834
MSNQEPATILLIDDHPMLRTGVKQLISMAPDITVVGEASNGEQGIELAESLDPDLILLDLNMPGMNGLETLDKLREKSLSGRIVVFSVSNHEEDVVTALKRGADGYLLKDMEPEDLLKALHQAAAGEMVLSEALTPVLAASLRANRATTERDVNQLTPRERDILKLIAQGLPNKMIARRLDITESTVKVHVKHMLKKMKLKSRVEAAVWVHQERIF [P0AF28]	total protein half-life in vivo	3.06
MMYHIPGVLSPQDVARFREQLEQAEWVDGRVTTGAQGAQVKNNQQVDTRSTLYAALQNEVLNAVNQHALFFAAALPRTLSTPLFNRYQNNETYGFHVDGAVRSHPQNGWMRTDLSATLFLSDPQSYDGGELVVNDTFGQHRVKLPAGDLVLYPSSSLHCVTPVTRGVRVASFMWIQSMIRDDKKRAMLFELDNNIQSLKSRYGESEEILSLLNLYHNLLREWSEI	total protein half-life in vivo	3
MMKTMRIAAIPGDGIGKEVLPEGIRVLQAAAERWGFALSFEQMEWASCEYYSHHGKMMPDDWHEQLSRFDAIYFGAVGWPDTVPDHISLWGSLLKFRREFDQYVNLRPVRLFPGVPCPLAGKQPGDIDFYVVRENTEGEYSSLGGRVNEGTEHEVVIQESVFTRRGVDRILRYAFELAQSRPRKTLTSATKSNGLAISMPYWDERVEAMAENYPEIRWDKQHIDILCARFVMQPERFDVVVASNLFGDILSDLGPACTGTIGIAPSANLNPERTFPSLFEPVHGSAPDIYGKNIANPIATIWAGAMMLDFLGNGDERFQQAHNGILAAIEEVIAHGPKTPDMKGNATTPQVADAICKIILR	total protein half-life in vivo	2.6
